assayMethodText: Inhibition of PKA at 10 uM by HTRF assay relative to control
measurementLabel: inhibition (%)

1) CN(C)c1ccc(C(=O)N2CCN(c3ncnc4c3CN(Cc3ccccc3)CC4)CC2)c2ccccc12 0
2) CN(CCc1ccccn1)C(=O)c1cccc(Nc2nccc(Nc3ccc4ncsc4c3)n2)c1 1
3) O=C(NCCc1ccc(O)cc1)c1cccc(Nc2nccc(Nc3ccc4ncsc4c3)n2)c1 0

1 = COc1ccc(NC(=O)Cc2ccc(Nc3cc(N(C)c4cccc(C)c4)ncn3)cc2)cn1
2 = Nc1nc(Nc2ccccc2)cc(N2CCC(C(=O)NCCc3ccccn3)CC2)n1
Higher inhibition between 1 and 2 ? In your reply, give the label of the chosen option.
2
